- tested on: Peptidyl-prolyl cis-trans isomerase FKBP4 (Homo sapiens)
- Sequence (Q02790 whole entry): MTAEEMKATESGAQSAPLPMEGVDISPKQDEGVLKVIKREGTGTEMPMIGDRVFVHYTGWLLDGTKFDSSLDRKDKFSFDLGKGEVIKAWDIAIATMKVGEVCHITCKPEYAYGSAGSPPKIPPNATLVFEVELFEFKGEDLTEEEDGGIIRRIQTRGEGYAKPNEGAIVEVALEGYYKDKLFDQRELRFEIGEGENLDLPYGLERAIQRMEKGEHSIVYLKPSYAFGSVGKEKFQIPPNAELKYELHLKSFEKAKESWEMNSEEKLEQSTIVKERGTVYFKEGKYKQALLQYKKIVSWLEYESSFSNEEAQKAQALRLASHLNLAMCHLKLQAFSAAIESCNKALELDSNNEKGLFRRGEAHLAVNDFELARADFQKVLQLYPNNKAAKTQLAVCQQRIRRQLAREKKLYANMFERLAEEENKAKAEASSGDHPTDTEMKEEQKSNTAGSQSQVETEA
- assay procedure: Displacement of fluorescent tracer 5-(3-(4-((1S,5S,6S)-10-(3,5-dichlorophenylsulfonyl)-2-oxo-3-(pyridin-3-ylmethyl)-3,10-diazabicyclo[4.3.1]decan-5-yl)-1H-1,2,3-triazol-1-yl)propylcarbamoyl)-2-(6-(dimethylamino)-3-(dimethyliminio)-3H-xanthen-9-yl)benzoate from recombinant full length C-terminal FLAG-tagged FKBP52 (unknown origin) expressed in Escherichia coli BL21 (DE3) cells incubated for 30 mins by fluorescence polarisation competition binding assay
pKd: −log10 of the molar value.
compounds and their reported pKd

compound	tested on	censoring operator	pKd
COc1ccc(CC[C@H]2OC(=O)[C@@H]3CCCCN3C(=O)[C@@H](C3CCCCC3)c3cc(OC)c(OC)c(c3)OC[C@@H](O)[C@H](O)COc3cccc2c3)cc1OC	Peptidyl-prolyl cis-trans isomerase FKBP4 (Homo sapiens)	=	6.29
COc1ccc(CC[C@H]2OC(=O)[C@@H]3CCCCN3C(=O)[C@@H](C3CCCCC3)c3cc(OC)c(OC)c(c3)OCCC(=O)COc3cccc2c3)cc1OC	Peptidyl-prolyl cis-trans isomerase FKBP4 (Homo sapiens)	=	5.45
COc1ccc(CC[C@H]2OC(=O)[C@@H]3CCCCN3C(=O)[C@@H](C3CCCCC3)c3cc(OC)c(c(OC)c3)OCCOC/C=C\COc3cccc2c3)cc1OC	Peptidyl-prolyl cis-trans isomerase FKBP4 (Homo sapiens)	<	5.00
COc1ccc(CC[C@H]2OC(=O)[C@@H]3CCCCN3C(=O)[C@@H](C3CCCCC3)c3cc(OC)c(OC)c(c3)OCCOCC(=O)CCOc3cccc2c3)cc1OC	Peptidyl-prolyl cis-trans isomerase FKBP4 (Homo sapiens)	=	5.41
COc1cccc([C@@H](CCc2ccc(OC)c(OC)c2)OC(=O)[C@@H]2CCCCN2C(=O)[C@H](c2cc(OC)c(OC)c(OC)c2)C2CCCCC2)c1	Peptidyl-prolyl cis-trans isomerase FKBP4 (Homo sapiens)	<	5.00
COc1ccc(CC[C@H]2OC(=O)[C@@H]3CCCCN3C(=O)[C@@H](C3CCCCC3)c3cc(OC)c(OC)c(c3)OCCCOC/C=C\COc3cccc2c3)cc1OC	Peptidyl-prolyl cis-trans isomerase FKBP4 (Homo sapiens)	<	5.00
COc1ccc(CC[C@H]2OC(=O)[C@@H]3CCCCN3C(=O)[C@@H](C3CCCCC3)c3cc(OC)c(OC)c(c3)OCCCOc3cccc2c3)cc1OC	Peptidyl-prolyl cis-trans isomerase FKBP4 (Homo sapiens)	=	4.88
COc1ccc(CC[C@H]2OC(=O)[C@@H]3CCCCN3C(=O)[C@@H](C3CCCCC3)c3cc(OC)c(c(OC)c3)OC/C=C/COc3cccc2c3)cc1OC	Peptidyl-prolyl cis-trans isomerase FKBP4 (Homo sapiens)	<	5.00
COc1ccc(CC[C@H]2OC(=O)[C@@H]3CCCCN3C(=O)[C@@H](C3CCCCC3)c3cc(OC)c(OC)c(c3)OCCCOCCCCOc3cccc2c3)cc1OC	Peptidyl-prolyl cis-trans isomerase FKBP4 (Homo sapiens)	<	5.00
COc1ccc(CC[C@H]2OC(=O)[C@@H]3CCCCN3C(=O)[C@@H](C3CCCCC3)c3cc(OC)c(OC)c(c3)OCCCCCOc3cccc2c3)cc1OC	Peptidyl-prolyl cis-trans isomerase FKBP4 (Homo sapiens)	<	5.00
COc1ccc(CC[C@H]2OC(=O)[C@@H]3CCCCN3C(=O)[C@@H](C3CCCCC3)c3cc(OC)c(c(OC)c3)OCCC(=O)COc3cccc2c3)cc1OC	Peptidyl-prolyl cis-trans isomerase FKBP4 (Homo sapiens)	=	5.33
COc1ccc(CC[C@H]2OC(=O)[C@@H]3CCCCN3C(=O)[C@@H](C3CCCCC3)c3cc(OC)c(c(OC)c3)OCCOc3cccc2c3)cc1OC	Peptidyl-prolyl cis-trans isomerase FKBP4 (Homo sapiens)	<	5.00
COc1ccc(CC[C@H]2OC(=O)[C@@H]3CCCCN3C(=O)[C@@H](C3CCCCC3)c3cc(OC)c(OC)c(c3)OCC/C=C\COc3cccc2c3)cc1OC	Peptidyl-prolyl cis-trans isomerase FKBP4 (Homo sapiens)	<	5.00
COc1ccc(CC[C@H]2OC(=O)[C@@H]3CCCCN3C(=O)[C@@H](C3CCCCC3)c3cc(OC)c(OC)c(c3)OCCOc3cccc2c3)cc1OC	Peptidyl-prolyl cis-trans isomerase FKBP4 (Homo sapiens)	=	5.04
COc1ccc(CC[C@H]2OC(=O)[C@@H]3CCCCN3C(=O)[C@@H](C3CCCCC3)c3cc(OC)c(c(OC)c3)OCC(O)C(O)COc3cccc2c3)cc1OC (mixture of isomers)	Peptidyl-prolyl cis-trans isomerase FKBP4 (Homo sapiens)	=	6.10
COc1ccc(CC[C@H]2OC(=O)[C@@H]3CCCCN3C(=O)[C@@H](C3CCCCC3)c3cc(OC)c(c(OC)c3)OCCCOCCCCOc3cccc2c3)cc1OC	Peptidyl-prolyl cis-trans isomerase FKBP4 (Homo sapiens)	<	5.00
COc1ccc(CC[C@H]2OC(=O)[C@@H]3CCCCN3C(=O)[C@@H](C3CCCCC3)c3cc(OC)c(c(OC)c3)OCCOCCCCOc3cccc2c3)cc1OC	Peptidyl-prolyl cis-trans isomerase FKBP4 (Homo sapiens)	<	5.00
COc1ccc(CC[C@H]2OC(=O)[C@@H]3CCCCN3C(=O)[C@@H](C3CCCCC3)c3cc(OC)c(OC)c(c3)OC[C@H](O)[C@@H](O)COc3cccc2c3)cc1OC	Peptidyl-prolyl cis-trans isomerase FKBP4 (Homo sapiens)	=	5.41
COc1ccc(CC[C@H]2OC(=O)[C@@H]3CCCCN3C(=O)[C@@H](C3CCCCC3)c3cc(OC)c(OC)c(c3)OCCCCOc3cccc2c3)cc1OC	Peptidyl-prolyl cis-trans isomerase FKBP4 (Homo sapiens)	=	5.35
COc1ccc(CC[C@H]2OC(=O)[C@@H]3CCCCN3C(=O)[C@@H](C3CCCCC3)c3cc(OC)c(OC)c(c3)OCC/C=C/COc3cccc2c3)cc1OC	Peptidyl-prolyl cis-trans isomerase FKBP4 (Homo sapiens)	<	5.00
COc1ccc(CC[C@H]2OC(=O)[C@@H]3CCCCN3C(=O)[C@@H](C3CCCCC3)c3cc(OC)c(c(OC)c3)OCCCOc3cccc2c3)cc1OC	Peptidyl-prolyl cis-trans isomerase FKBP4 (Homo sapiens)	<	5.00
COc1ccc(CC[C@H]2OC(=O)[C@@H]3CCCCN3C(=O)[C@@H](C3CCCCC3)c3cc(OC)c(OC)c(c3)OCCOC/C=C\COc3cccc2c3)cc1OC	Peptidyl-prolyl cis-trans isomerase FKBP4 (Homo sapiens)	<	5.00
COc1ccc(CC[C@H]2OC(=O)[C@@H]3CCCCN3C(=O)[C@@H](C3CCCCC3)c3cc(OC)c(OC)c(c3)OC/C=C/COc3cccc2c3)cc1OC	Peptidyl-prolyl cis-trans isomerase FKBP4 (Homo sapiens)	=	5.27
COc1ccc(CC[C@H]2OC(=O)[C@@H]3CCCCN3C(=O)[C@@H](C3CCCCC3)c3cc(OC)c(OC)c(c3)OCCCC(=O)COc3cccc2c3)cc1OC	Peptidyl-prolyl cis-trans isomerase FKBP4 (Homo sapiens)	=	5.39
COc1ccc(CC[C@H]2OC(=O)[C@@H]3CCCCN3C(=O)[C@@H](C3CCCCC3)c3cc(OC)c(c(OC)c3)OCCCCOc3cccc2c3)cc1OC	Peptidyl-prolyl cis-trans isomerase FKBP4 (Homo sapiens)	<	5.00

---

- assay procedure: Selectivity ratio of Kd for displacement of fluorescent tracer 5-(3-(4-((1S,5S,6S)-10-(3,5-dichlorophenylsulfonyl)-2-oxo-3-(pyridin-3-ylmethyl)-3,10-diazabicyclo[4.3.1]decan-5-yl)-1H-1,2,3-triazol-1-yl)propylcarbamoyl)-2-(6-(dimethylamino)-3-(dimethyliminio)-3H-xanthen-9-yl)benzoate from recombinant full length C-terminal FLAG-tagged FJBP12 to Kd for displacement of fluorescent tracer 5-(3-(4-((1S,5S,6S)-10-(3,5-dichlorophenylsulfonyl)-2-oxo-3-(pyridin-3-ylmethyl)-3,10-diazabicyclo[4.3.1]decan-5-yl)-1H-1,2,3-triazol-1-yl)propylcarbamoyl)-2-(6-(dimethylamino)-3-(dimethyliminio)-3H-xanthen-9-yl)benzoate from recombinant full length C-terminal FLAG-tagged FKBP51 (unknown origin)
molecules and their reported Selectivity ratio

chemical smiles	Selectivity ratio
COc1ccc(CC[C@H]2OC(=O)[C@@H]3CCCCN3C(=O)[C@@H](C3CCCCC3)c3cc(OC)c(c(OC)c3)OCCCOCCCCOc3cccc2c3)cc1OC	6.4
COc1ccc(CC[C@H]2OC(=O)[C@@H]3CCCCN3C(=O)[C@@H](C3CCCCC3)c3cc(OC)c(c(OC)c3)OCC/C=C\COc3cccc2c3)cc1OC	6
COc1ccc(CC[C@H]2OC(=O)[C@@H]3CCCCN3C(=O)[C@@H](C3CCCCC3)c3cc(OC)c(OC)c(c3)OCC/C=C\COc3cccc2c3)cc1OC	2

---

compounds and their reported pKd
- tested on: Peptidyl-prolyl cis-trans isomerase FKBP5 (Homo sapiens, UniProt Q13451)
- Sequence (Q13451 whole entry): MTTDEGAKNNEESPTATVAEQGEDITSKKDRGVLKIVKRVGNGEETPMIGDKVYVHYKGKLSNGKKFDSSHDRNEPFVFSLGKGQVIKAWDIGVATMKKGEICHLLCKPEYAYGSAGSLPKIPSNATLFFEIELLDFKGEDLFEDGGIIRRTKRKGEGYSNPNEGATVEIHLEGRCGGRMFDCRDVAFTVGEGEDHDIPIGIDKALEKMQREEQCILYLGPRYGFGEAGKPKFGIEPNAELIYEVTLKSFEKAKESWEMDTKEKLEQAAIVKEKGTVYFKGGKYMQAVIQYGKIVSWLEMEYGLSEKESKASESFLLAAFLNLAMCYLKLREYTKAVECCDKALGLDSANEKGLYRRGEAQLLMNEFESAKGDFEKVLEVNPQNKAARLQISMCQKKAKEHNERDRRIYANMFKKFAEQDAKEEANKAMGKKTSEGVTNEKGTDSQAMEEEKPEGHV
- assay procedure: Displacement of fluorescent tracer 5-(3-(4-((1S,5S,6S)-10-(3,5-dichlorophenylsulfonyl)-2-oxo-3-(pyridin-3-ylmethyl)-3,10-diazabicyclo[4.3.1]decan-5-yl)-1H-1,2,3-triazol-1-yl)propylcarbamoyl)-2-(6-(dimethylamino)-3-(dimethyliminio)-3H-xanthen-9-yl)benzoate from recombinant full length C-terminal FLAG-tagged FKBP51 (unknown origin) expressed in Escherichia coli BL21 (DE3) cells incubated for 30 mins by fluorescence polarisation competition binding assay
pKd: −log10 of the molar value.

chemical smiles	pKd
COc1ccc(CC[C@H]2OC(=O)[C@@H]3CCCCN3C(=O)[C@@H](C3CCCCC3)c3cc(OC)c(c(OC)c3)OCCCCCOc3cccc2c3)cc1OC	6.92
COc1ccc(CC[C@H]2OC(=O)[C@@H]3CCCCN3C(=O)[C@@H](C3CCCCC3)c3cc(OC)c(c(OC)c3)OCCCCOc3cccc2c3)cc1OC	7.05
COc1ccc(CC[C@H]2OC(=O)[C@@H]3CCCCN3C(=O)[C@@H](C3CCCCC3)c3cc(OC)c(c(OC)c3)OCCCOc3cccc2c3)cc1OC	7.15
COc1ccc(CC[C@H]2OC(=O)[C@@H]3CCCCN3C(=O)[C@@H](C3CCCCC3)c3cc(OC)c(OC)c(c3)OCCCOc3cccc2c3)cc1OC	7.15
COc1ccc(CC[C@H]2OC(=O)[C@@H]3CCCCN3C(=O)[C@@H](C3CCCCC3)c3cc(OC)c(c(OC)c3)OC/C=C/COc3cccc2c3)cc1OC	7.05
COc1ccc(CC[C@H]2OC(=O)[C@@H]3CCCCN3C(=O)[C@@H](C3CCCCC3)c3cc(OC)c(OC)c(c3)OCCOc3cccc2c3)cc1OC	7.26
